Hi there, I'd appreciate the recorded koff for every entry that follows.
TESTED_SYSTEM: T1, human IL-17A (human, UniProt Q16552 20-155, limits assumed)
T1 construct: Bought from R&D Systems; also called IL-17 antigen (human IL17A)
T1 sequence (looked up): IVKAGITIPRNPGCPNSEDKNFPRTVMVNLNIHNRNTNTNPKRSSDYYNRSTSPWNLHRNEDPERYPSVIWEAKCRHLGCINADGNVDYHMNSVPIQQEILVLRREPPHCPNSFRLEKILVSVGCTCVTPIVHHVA
PROTOCOL: BLI (Octet Red96), antibody captured on AHC biosensor, human IL-17A in solution, 1:1 model, 25 C

Below: 2 binders and their reported koff.
BINDER	koff
PP10761 (antibody, human IgG4 S228P, kappa, V domains shown, Humanized, human IgG4/kappa; also called VH6665/VL6666) VH: EVQLVESGGGLVQPGGSLRLSCAASGFTFSTYGMSWVRQAPGKGLELVSIINHNGGSTFYPDSVKGRFTISRDNSKNTLYLQMNSLRAEDTAVYYCARDPRHDGYFFDYWGQGTLVTVSS VL: DIQMTQSPSSLSASVGDRVTITCQASEDIYDRLAWYQQKPGKAPKLLISGATSLETGVPSRFSGSGSGKDYTFTISSLQPEDIATYYCQQYWSVPWTFGGGTKVEIKR	< 1e-07 s⁻¹
PP10768 (antibody, human IgG4 S228P, kappa, V domains shown, Humanized, human IgG4/kappa; also called VH6667/VL6667) VH: EVQLVESGGGVVQPGRSLRLSCAASGFTFSTYGMSWVRQAPGKGLELVAIINHNGGSTFYPDSVKGRFTISRDNSKNTLYLQMNSLRAEDTAVYYCARDPRHDGYFFDYWGQGTLVTVSS VL: DIQMTQSPSSLSASVGDRVTITCRASEDIYDRLAWYQQKPGKAPNLLVSGATSLESGVPSRFSGSGSGKDYTLTISSLQPEDFATYYCQQYWSVPWTFGGGTKVEIKR	< 1e-07 s⁻¹

Problem: Value lookup for koff; key = PP10766 (antibody, human IgG4 S228P, kappa, V domains shown, Humanized, human IgG4/kappa; also called VH6667/VL6665) VH: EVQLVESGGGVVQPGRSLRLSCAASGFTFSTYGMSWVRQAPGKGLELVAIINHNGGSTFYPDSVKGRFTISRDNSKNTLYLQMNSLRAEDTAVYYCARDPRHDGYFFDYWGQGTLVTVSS VL: DIQMTQSPSSLSASVGDRVTITCQASEDIYDRLAWYQQKPGKAPKLLISGATSLETGVPSRFSGSGSGTDYTFTISSLQPEDIATYYCQQYWSVPWTFGGGTKVEIKR
Solution: < 1e-07 s⁻¹
